Measured koff, listed per entry.
- test.system: T1, human serum albumin (human, UniProt P02768 25-609)
- T1 construct: also called HSA
- run.description: SPR (Biacore), HSA amine-coupled on CM5, pH 7
measure: koff (s⁻¹)

binder | measure | test.result
4D5 (VHH, Tested as periplasmic extract) VHH: EVQLVESGGGLVQAGGSLRLSCAASGLSFSKYAMGWFRQAPGKQREYVAVISSSDTTYYTNSAKGRFTISRDNAENTVYLQMNSLKPEDTAVYFCAADSYVTALQTLTQISYWGQGTQVTVSS | koff | 0.0204
4D3 (VHH, Tested as periplasmic extract) VHH: EVQLVKSGGGLVQPGGSLRLSCAASGFTFSHYQMSWVRQAPGKDVEWVSSISMLGGGTTYADSVKGRFTISRDNAKSTLVLQMNNLKVEDTAVYYCARGFSGNYYRADLGQGTQVTVSS | koff | 0.00565
4C9 (VHH, Tested as periplasmic extract) VHH: EVQLVESGGGLVQAGDSLRLSCTASERPFSTYVMGWFRRAPGKEREFVGGITWSGINAWYTDSVLGRFTISSDNAKNTVYLQMNSLKPEDTAVYYCAAASGVGRYRYELQYDYWGQGTQVTVSS | koff | 0.000441
